target-entity: HLA-B*15:17
experimental-details: IEDB peptide-MHC binding, purified MHC/direct/fluorescence; filed as Kd, often an IC50 or EC50 that approximates it; bounds were set here for any values at or beyond the usual limits of such assays
condition-info: source organism: Vibrio vulnificus YJ016
pKd: −log10 of the molar value.
endpoint-label: pKd

Could you tell me which pKd is on file for KRFYQTVGF ? ≤ 4.70

====

target-entity: HLA-B*39:01
experimental-details: IEDB peptide-MHC binding, purified MHC/direct/fluorescence; filed as Kd, often an IC50 or EC50 that approximates it; bounds were set here for any values at or beyond the usual limits of such assays
condition-info: source organism: Lyssavirus rabies
endpoint-label: Kd

Could you tell me which Kd is on file for YLDNVGVHI ? ≥ 20 µM

====

target-entity: HLA-B*46:01
experimental-details: IEDB peptide-MHC binding, purified MHC/competitive/fluorescence; filed as Kd, often an IC50 or EC50 that approximates it; bounds were set here for any values at or beyond the usual limits of such assays
condition-info: source organism: Reston ebolavirus - Reston (1989)
pKd: −log10 of the molar value.
endpoint-label: pKd

Could you tell me which pKd is on file for FSDLCNFLI ? ≤ 4.70

====

target-entity: HLA-B*15:01
experimental-details: IEDB peptide-MHC binding, purified MHC/competitive/fluorescence; filed as Kd, often an IC50 or EC50 that approximates it; bounds were set here for any values at or beyond the usual limits of such assays
condition-info: source organism: Campylobacter jejuni subsp. jejuni NCTC 11168 = ATCC 700819
pKd: −log10 of the molar value.
endpoint-label: pKd

Could you tell me which pKd is on file for LELAEITAE ? ≤ 4.70

====

target-entity: HLA-A*02:01
experimental-details: IEDB peptide-MHC binding, purified MHC/competitive/fluorescence; filed as Kd, often an IC50 or EC50 that approximates it; bounds were set here for any values at or beyond the usual limits of such assays
condition-info: source organism: Entamoeba histolytica
endpoint-label: Kd

Could you tell me which Kd is on file for DLKPENILL ? ≥ 20 µM

====

target-entity: HLA-B*35:01
experimental-details: IEDB peptide-MHC binding, purified MHC/direct/fluorescence; filed as Kd, often an IC50 or EC50 that approximates it; bounds were set here for any values at or beyond the usual limits of such assays
condition-info: source organism: Escherichia coli O157:H7
endpoint-label: Kd (µM)
Value expressed in µM; do not type the unit.

Could you tell me which Kd is on file for PSSKPDWFY ? 1.04

====

target-entity: HLA-B*18:01
experimental-details: IEDB peptide-MHC binding, purified MHC/competitive/fluorescence; filed as Kd, often an IC50 or EC50 that approximates it; bounds were set here for any values at or beyond the usual limits of such assays
condition-info: source organism: Cryptosporidium parvum Iowa II
pKd: −log10 of the molar value.
endpoint-label: pKd

Could you tell me which pKd is on file for KSFSAGMFH ? ≤ 4.70

Next: KSWLVHWSL ≤ 4.70

====

target-entity: HLA-C*07:02
experimental-details: IEDB peptide-MHC binding, purified MHC/direct/fluorescence; filed as Kd, often an IC50 or EC50 that approximates it; bounds were set here for any values at or beyond the usual limits of such assays
condition-info: source organism: Mycobacterium tuberculosis variant bovis BCG str. Pasteur 1173P2
endpoint-label: Kd
Don't forget the unit after the value.

Could you tell me which Kd is on file for YMLDMTFPV ? 651 nM

====

target-entity: HLA-A*31:01
experimental-details: IEDB peptide-MHC binding, purified MHC/competitive/radioactivity; filed as Kd, often an IC50 or EC50 that approximates it; bounds were set here for any values at or beyond the usual limits of such assays
condition-info: source organism: Dengue virus 3 Martinique/1243/1999
What pKd was measured for each of the following?
Scale note: pKd = -log10(concentration in M).

Could you tell me which pKd is on file for TWMSAEGAWR ? 6.61

Next: AASAAQRRGR 6.78

====

target-entity: HLA-A*02:12
experimental-details: IEDB peptide-MHC binding, purified MHC/direct/fluorescence; filed as Kd, often an IC50 or EC50 that approximates it; bounds were set here for any values at or beyond the usual limits of such assays
condition-info: source organism: Francisella tularensis subsp. tularensis FSC033
endpoint-label: pKd
Scale note: pKd = -log10(concentration in M).

Could you tell me which pKd is on file for FLYDISISL ? 8.52

====

target-entity: HLA-A*02:16
experimental-details: IEDB peptide-MHC binding, purified MHC/direct/fluorescence; filed as Kd, often an IC50 or EC50 that approximates it; bounds were set here for any values at or beyond the usual limits of such assays
condition-info: source organism: Influenza A virus (A/Memphis/1/1986(H3N2))
pKd: −log10 of the molar value.
endpoint-label: pKd

// fetch HLA-A*02:16 pKd for NHDGIQAGV ≤ 4.70

====

target-entity: HLA-A*26:01
experimental-details: IEDB peptide-MHC binding, purified MHC/direct/fluorescence; filed as Kd, often an IC50 or EC50 that approximates it; bounds were set here for any values at or beyond the usual limits of such assays
condition-info: source organism: Bacillus anthracis str. A0465
endpoint-label: Kd (nM)
Value expressed in nM; do not type the unit.

Could you tell me which Kd is on file for FFLFPMAAY ? 490

====

target-entity: HLA-A*03:01
experimental-details: IEDB peptide-MHC binding, purified MHC/competitive/radioactivity; filed as Kd, often an IC50 or EC50 that approximates it; bounds were set here for any values at or beyond the usual limits of such assays
condition-info: source organism: Mammarenavirus brazilense
What Kd was measured for each of the following?
Value expressed in µM; do not type the unit.

Could you tell me which Kd is on file for IMAYVNQAH ? 2.21

Next: VTLDFTKFH 7.44

====

target-entity: HLA-B*44:02
experimental-details: IEDB peptide-MHC binding, purified MHC/direct/fluorescence; filed as Kd, often an IC50 or EC50 that approximates it; bounds were set here for any values at or beyond the usual limits of such assays
condition-info: source organism: Salmonella enterica
pKd: −log10 of the molar value.
endpoint-label: pKd

Could you tell me which pKd is on file for RPQLGVGDV ? ≤ 4.70

====

target-entity: HLA-A*69:01
experimental-details: IEDB peptide-MHC binding, purified MHC/direct/fluorescence; filed as Kd, often an IC50 or EC50 that approximates it; bounds were set here for any values at or beyond the usual limits of such assays
condition-info: source organism: Sudan virus - Boniface, Sudan,1976
endpoint-label: Kd

// fetch HLA-A*69:01 Kd for TMMRHRREL ≥ 20 µM

====

target-entity: HLA-B*40:01
experimental-details: IEDB peptide-MHC binding, purified MHC/direct/fluorescence; filed as Kd, often an IC50 or EC50 that approximates it; bounds were set here for any values at or beyond the usual limits of such assays
condition-info: source organism: Yellow fever virus
endpoint-label: Kd

// fetch HLA-B*40:01 Kd for TKDTNDNNL ≥ 20 µM

====

target-entity: HLA-A*01:01
experimental-details: IEDB peptide-MHC binding, purified MHC/direct/fluorescence; filed as Kd, often an IC50 or EC50 that approximates it; bounds were set here for any values at or beyond the usual limits of such assays
condition-info: source organism: Influenza A virus (A/swine/Italy/809/1989(H3N2))
endpoint-label: Kd

Could you tell me which Kd is on file for EEIRRIWRQ ? ≥ 20 µM

====

target-entity: HLA-B*07:02
experimental-details: IEDB peptide-MHC binding, purified MHC/competitive/fluorescence; bounds were set here for any values at or beyond the usual limits of such assays
condition-info: source organism: Vaccinia virus
endpoint-label: pIC50
Scale note: pIC50 = -log10(concentration in M).

// fetch HLA-B*07:02 pIC50 for LVRSETKQK 4.46

====

target-entity: HLA-B*15:01
experimental-details: IEDB peptide-MHC binding, purified MHC/direct/fluorescence; filed as Kd, often an IC50 or EC50 that approximates it; bounds were set here for any values at or beyond the usual limits of such assays
condition-info: source organism: Pseudomonas aeruginosa
pKd: −log10 of the molar value.
endpoint-label: pKd

// fetch HLA-B*15:01 pKd for DLPPAIAAE ≤ 5.00

====

target-entity: HLA-B*18:01
experimental-details: IEDB peptide-MHC binding, purified MHC/direct/fluorescence; filed as Kd, often an IC50 or EC50 that approximates it; bounds were set here for any values at or beyond the usual limits of such assays
condition-info: source organism: Clostridium botulinum
endpoint-label: Kd

// fetch HLA-B*18:01 Kd for RVYINVVVK ≥ 20 µM

====

target-entity: HLA-B*39:01
experimental-details: IEDB peptide-MHC binding, purified MHC/competitive/fluorescence; filed as Kd, often an IC50 or EC50 that approximates it; bounds were set here for any values at or beyond the usual limits of such assays
condition-info: source organism: Escherichia coli str. K-12 substr. MG1655
endpoint-label: Kd

Could you tell me which Kd is on file for AAAVAYPEL ? ≥ 20 µM

Values were extracted from the Immune Epitope Database (IEDB).
